# SYSTEM_TESTED: Beta-2 adrenergic receptor (Homo sapiens) (UniProt P07550)
# Sequence (P07550 whole entry, looked up): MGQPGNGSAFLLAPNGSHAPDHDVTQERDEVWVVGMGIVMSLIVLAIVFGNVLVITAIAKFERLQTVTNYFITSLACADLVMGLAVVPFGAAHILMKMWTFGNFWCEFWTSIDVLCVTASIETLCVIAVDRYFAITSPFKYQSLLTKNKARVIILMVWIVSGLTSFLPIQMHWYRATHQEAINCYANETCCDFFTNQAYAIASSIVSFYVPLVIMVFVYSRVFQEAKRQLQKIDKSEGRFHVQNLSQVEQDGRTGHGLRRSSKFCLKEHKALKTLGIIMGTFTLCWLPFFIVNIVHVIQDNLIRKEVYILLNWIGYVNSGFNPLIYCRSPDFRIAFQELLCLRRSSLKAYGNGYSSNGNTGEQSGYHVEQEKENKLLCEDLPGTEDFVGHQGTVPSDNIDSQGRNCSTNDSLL
# EXPERIMENTAL_DETAILS: Adrenergic beta2 receptor (ADRB2) small molecule antagonists, cell-based qHTS assay (AID 1963592); also: nearly all actives have a fitted effect of over 50% in size
# TEST_CONDITIONS: CHO-ADRB2 cells, isoproterenol-stimulated cAMP HTRF ratio, 0.5 h; series mostly up to 92.4 µM
Inconclusive results are not listed. The source made the active and inactive calls. Calls follow the shape of the full dose curve.
Mark one answer only. Choices: Yes = active, No = inactive

Use the examples below as a reference point.
1. CCCCCC/C=C/C=O :: No
2. NC(=O)c1ccccc1 :: No
3. NCc1ccccc1 :: No
4. O=C(Oc1cccc2cccnc12)c1ccccc1 :: No
5. CC(O)C1CCCCC1 (stereo unspecified) :: No

Test call, this compound: "O=C(O)CNC(=O)CNC(=O)CNC(=O)CSC(=O)c1ccccc1"
No

Name the outcome recorded for CCO[Si](CCC1CCC2OC2C1)(OCC)OCC (stereo unspecified) in the assay.
No

// return assay outcome for "COc1cccc(N)c1"
No

Hi, do you know how "CC1(C)CC(=O)CC(C)(C)N1" came out in this test?
No

Which result was noted for this compound in the test: "CC(=O)OCC(=O)[C@@]1(O)[C@H](C)C[C@H]2[C@@H]3CCC4=CC(=O)C=C[C@]4(C)[C@@]3(F)[C@@H](O)C[C@@]21C"
No

----------
# EXPERIMENTAL_DETAILS: p53 small molecule agonists, cell-based qHTS assay with human liver microsomes: qHTS cell viability counter screen (AID 1963579); also: nearly all actives have a fitted effect of over 45% in size
# TEST_CONDITIONS: p53RE-bla HCT-116 viability, ATP luminescence, 16 h, HLM; series mostly up to 66 µM
Results filed as inconclusive are left out. Calls of active or inactive are those of the source. Calls come from the whole dose curve.
Log the outcome using a class from active, inactive

Before answering, review these 6 worked examples.
1) Cc1ccc(C(C)C)cc2c(C)ccc1-2 :: inactive
2) Cn1cc(C(=O)[C@@H]2CCc3nc[nH]c3C2)c2ccccc21 :: inactive
3) Nc1ncn([C@H]2C[C@H](O)[C@@H](CO)O2)c(=O)n1 :: inactive
4) Cn1c(N)nc2nc[nH]c2c1=O :: inactive
5) Cc1cccc(C)c1NC(=O)CN1CCN(CCCC(c2ccc(F)cc2)c2ccc(F)cc2)CC1 :: inactive
6) CCC(Cl)C(Cl)C(Cl)CC(Cl)C(Cl)C(C)Cl (configuration not stated) :: inactive

Please find the next compound below.
// return assay outcome for "CCn1c(=O)c2c(nc(/C=C/c3ccc(OC)c(OC)c3)n2C)n(CC)c1=O"
inactive

----------
# SYSTEM_TESTED: D(2) dopamine receptor (Homo sapiens) (UniProt P14416)
# Sequence (P14416 whole entry, looked up): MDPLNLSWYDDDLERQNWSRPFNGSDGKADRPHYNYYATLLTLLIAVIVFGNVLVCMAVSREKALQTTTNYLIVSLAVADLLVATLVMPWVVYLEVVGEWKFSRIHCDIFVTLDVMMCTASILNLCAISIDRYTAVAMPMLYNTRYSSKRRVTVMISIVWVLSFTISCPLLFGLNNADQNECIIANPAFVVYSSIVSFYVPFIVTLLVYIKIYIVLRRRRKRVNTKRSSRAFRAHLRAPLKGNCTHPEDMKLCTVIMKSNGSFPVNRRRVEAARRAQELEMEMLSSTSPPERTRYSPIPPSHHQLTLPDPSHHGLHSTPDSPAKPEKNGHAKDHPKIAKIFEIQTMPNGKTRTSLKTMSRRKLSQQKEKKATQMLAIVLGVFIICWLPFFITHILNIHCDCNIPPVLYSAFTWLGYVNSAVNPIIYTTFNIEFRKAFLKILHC
# EXPERIMENTAL_DETAILS: Dopamine D2 receptor (DRD2) small molecule antagonists, cell-based qHTS assay (AID 1963595)
# TEST_CONDITIONS: HEK293-DRD2 cAMP HTRF antagonist mode; series mostly up to 92.4 µM
Records with an inconclusive call do not appear. Activity calls are given as the source filed them. The call rests on the fitted dose curve; in most records, active means well fitted inhibition curve with a large enough effect in the signal ratio in the repeat runs, with a control signal flat; inconclusive means weak or mixed curves, or effect the other way; inactive means flat fitted curve, though single readings scatter; the % refers to the signal ratio.
# output must be one of active, inactive

1. COc1ccc(-c2nc3ccc(C4=NNC(=O)CC4C)cc3[nH]2)cc1 (stereo not drawn) :: inactive
2. CC(C)(C)OC(=O)c1ccc(O)cc1 :: inactive

Please share the test call associated with "O=C(CCCN1CC=C(n2c(=O)[nH]c3ccccc32)CC1)c1ccc(F)cc1" .
active

----------
# EXPERIMENTAL_DETAILS: Nuclear factor erythroid 2-related factor 2/antioxidant responsive element (Nrf2/ARE) small molecule agonists: luciferase reporter gene qHTS assay in human keratinocytes (AID 1919969); also: nearly all actives have a fitted effect of over 35% in size
# TEST_CONDITIONS: KeratinoSens HaCaT ARE-luciferase, luminescence, 24 h; series mostly up to 92.4 µM
Inconclusive results are not listed. The source made the active and inactive calls. The call rests on the fitted dose curve.
// one of 1 (active), 0 (inactive), no free text

// known answers, use as guide
1) CN1CCN(C(=O)C2CCCCC2)CC1 :: 0
2) O=[N+]([O-])c1cc(C2CCCCC2)c(O)c([N+](=O)[O-])c1 :: 1
3) CC(C)CCCCCOC(=O)CCCCC(=O)OCCCCCC(C)C :: 1

Returns: the outcome recorded for "CCCCCCCCn1sc(Cl)c(Cl)c1=O" in this assay.
1

Hey, what did the test say about "CCCCCCCCCCCCCBr" ?
0

Could you please tell me the result logged for "Cc1ccccc1OCC(=O)O" in this assay?
0

----------
# EXPERIMENTAL_DETAILS: Nuclear factor erythroid 2-related factor 2/antioxidant responsive element (Nrf2/ARE) small molecule agonists: qHTS cell viability counter screen in human keratinocytes (AID 1919968); also: % is scaled to controls: 0 for no effect and ±100 for the full control effect; nearly all actives have a fitted effect of over 55% in size
# TEST_CONDITIONS: KeratinoSens HaCaT ARE cells viability, CellTiter-Fluor, 24 h; series mostly up to 92.4 µM
Records with an inconclusive call do not appear. Activity calls are given as the source filed them. The call rests on the fitted dose curve; in most records, active means well fitted cell-killing curve with a large enough effect in the repeat runs; inconclusive means weak or mixed curves, or effect the other way; inactive means flat fitted curve, though single readings scatter.
Permitted responses: active, inactive

Recorded test call requested for "C[C@@H]1C[C@H]2[C@@H]3C[C@H](F)C4=CC(=O)C(Cl)=C[C@]4(C)[C@@]3(F)[C@@H](O)C[C@]2(C)[C@@]1(O)C(=O)CO"
inactive

----------
# EXPERIMENTAL_DETAILS: p53 small molecule agonists, cell-based qHTS assay with human liver microsomes: qHTS cell viability counter screen (AID 1963579); also: nearly all actives have a fitted effect of over 45% in size
# TEST_CONDITIONS: p53RE-bla HCT-116 viability, ATP luminescence, 16 h, HLM; series mostly up to 66 µM
Inconclusive results are not listed. Calls of active or inactive are those of the source. Calls follow the shape of the full dose curve.
Respond only with the outcome that fits, drawn from active, inactive

1) C=C(C)C1CC=C(C)C(=O)C1 (stereo unspecified) :: active
2) NC(=O)c1c(Cl)cccc1Cl :: inactive
3) CN(C)CCCN1c2ccccc2Sc2ccc(Cl)cc21 :: inactive
4) CCCCCCCC/C=C\CCCCCCCC(=O)OC(CO)CO :: inactive
5) C=CC(=O)NC(C)(C)C :: inactive

For the next question, use this molecule.
Please let me know the test result on file for "COc1cc2c(cc1OC)[C@@H]1CC(=O)[C@@H](CC(C)C)CN1CC2" .
inactive

----------
# SYSTEM_TESTED: D(2) dopamine receptor (Homo sapiens) (UniProt P14416)
# EXPERIMENTAL_DETAILS: Dopamine D2 receptor (DRD2) small molecule antagonists, cell-based qHTS assay (AID 1963595)
# TEST_CONDITIONS: HEK293-DRD2 cAMP HTRF antagonist mode; series mostly up to 92.4 µM
Inconclusive results are not listed. The source made the active and inactive calls. Calls follow the shape of the dose curve; as a rule, active = well fitted inhibition curve with a large enough effect in the signal ratio in the repeat runs, with a control signal flat; inconclusive = weak or mixed curves, or effect the other way; inactive = flat fitted curve, though single readings scatter; the % refers to the signal ratio.
Select the matching outcome among active, inactive

Example cases with answers are listed next.
1. CN1CCCN=C1/C=C/c1cccs1 :: inactive
2. Cc1ccccc1N=C(N)N=C(N)N :: inactive
3. CCc1oc2ccccc2c1C(=O)c1cc(Br)c(O)c(Br)c1 :: inactive
4. Nc1ccc(-c2ccc(F)cc2)cc1 :: inactive
5. COCCc1ccc(OCC2CO2)cc1 (stereo not given) :: inactive
6. O=S(=O)(O)c1cc(Cl)c(Cl)cc1Cl :: inactive

From here, focus on the item given below.
I would be grateful if you could indicate the recorded call for "CO[C@@]1(NC(=O)Cc2cccs2)C(=O)N2C(C(=O)O)=C(COC(N)=O)CS[C@@H]21" .
inactive

----------
# SYSTEM_TESTED: Beta-2 adrenergic receptor (Homo sapiens) (UniProt P07550)
# EXPERIMENTAL_DETAILS: Adrenergic beta2 receptor (ADRB2) small molecule antagonists, cell-based qHTS assay (AID 1963592); also: nearly all actives have a fitted effect of over 50% in size
# TEST_CONDITIONS: CHO-ADRB2 cells, isoproterenol-stimulated cAMP HTRF ratio, 0.5 h; series mostly up to 92.4 µM
Records with an inconclusive call do not appear. Activity calls are given as the source filed them. Calls come from the whole dose curve.
Hi! Could you answer with just one of these? class 1 for active, class 0 for inactive

Known results for compounds:
1. NCCCCCCNCCCCCCN :: class 0
2. C=C(C)C(=O)OC :: class 0
3. C[C@H]1[C@@H](c2ccccc2)NC(=O)N1C :: class 0
4. CC[C@H](C)C(=O)O[C@H]1C[C@H](O)C=C2C=C[C@H](C)[C@H](CC[C@@H](O)C[C@@H](O)CC(=O)O)[C@H]21 :: class 0
5. CC(C)COC(=O)CCCCC(=O)OCC(C)C :: class 0
6. COc1ccc2cc(S(=O)(=O)N[C@H](CC(=O)N[C@H](Cc3ccc(CN4[C@H](C)CCC[C@@H]4C)cc3)C(=O)N(C)C(C)C)c3ccc4c(c3)OCO4)ccc2c1 :: class 0

Please share the test call associated with "c1csc(SSc2cccs2)c1" .
class 0

Any idea what this test logged for "Cc1ccc2c(c1)CCCN2" ?
class 0

What did the test return for C1=CC2C3C=CC(C3)C2C1 (configuration not stated) ?
class 0

Query: recorded result category for "Cc1cc(CCN2CCN(c3nsc4ccccc34)CC2)cc2c1NC(=O)CC2(C)C" in this test
class 1

Would you mind telling me which call this test gave "OC(C#CCN1CCCC1)(c1ccccc1)c1ccccc1" ?
class 0

Check the results log: what was the call for "ClC(Cl)Cl" ?
class 0

# fetch the recorded call for "CCCCCCCCCCC[C@@H](C[C@@H]1OC(=O)[C@H]1CCCCCC)OC(=O)[C@H](CC(C)C)NC=O" here
class 0

Record lookup: outcome of this test for "O=C(NCc1ncc(C(F)(F)F)cc1Cl)c1c(Cl)cccc1Cl" ?
class 0

Hello, I am checking results. What call was entered for "Cc1ccc(-c2ncc(Cl)cc2-c2ccc(S(C)(=O)=O)cc2)cn1" ?
class 0
